From: the supplement of paper PMC9170038

system: MS2 coat protein; assay: apparent KD of MS2 coat protein; designed switch direction (-1 OFF switch, 1 ON switch): 1; higher = weaker reporter binding; details: Eterna round: R95; input ligand: microRNA oligo, concentration not stated
RECORDED METRIC: apparent KD of MS2 coat protein (nM)
Give the value, in units of nM, as a plain number.

Task: Would you kindly share the measured apparent KD of MS2 coat protein for AGUCCAGCCUGAGCUGGACAAAAGUAUGUACAUGAGGAUCACCCAUGUCAUGUACAAGCUUUUUGCUCGUCUUAAAA [Zipper 46 - 14] (puzzle: Sensor for hsa-mir-208a) ?
Result: 23.6

Task: Would you kindly share the measured apparent KD of MS2 coat protein for AAGAAGACGGACAAGGAUAUGUCAAAGGAAACAUGAGGAUCACCCAUGUGGAGAUUGGAAAAGAAACAGAAGGUGUACGGAGAGA [JR_SS2_Sub007] (puzzle: Same State 2) ?
Result: 12.3

Task: Would you kindly share the measured apparent KD of MS2 coat protein for GCAUCACAUGAGGAUCACCCAUGUCUUCGGAGUGGAGGAUAUGGUCACUGUAAACAGUGGCCAGAAGGCCGGAUGC [SS1 - Son of Teenbexe v2] (puzzle: Same State 1) ?
Result: 63.3

Task: Would you kindly share the measured apparent KD of MS2 coat protein for AGUCCAGCCUGAGCUGGACAAAAGCAUGUACAUGAGGAUCACCCAUGUUCAUGUACAAGCUUUUUGCAAGUCAAAAG [Mat - hsa-mir-208a - Mod of JL - 75] (puzzle: Sensor for hsa-mir-208a) ?
Result: 25.6

Task: Would you kindly share the measured apparent KD of MS2 coat protein for ACGCAGCUAGGUGAGGAUAUCGGUGGUAAAACAUGAGGAUCACCCAUGUCCGAAGCUCGGACUUCCGAGAAGGCGCCCGGCUGCA [Velaberi] (puzzle: Same State 2) ?
Result: 64.2

Task: Would you kindly share the measured apparent KD of MS2 coat protein for UGAGCCGGCACUGAGGAUAUUCAUAUUAAAACAUGAGGAUCACCCAUGUAGGCCAGAAGGCCUUGGGAGAAGGCAGGUCGGCUCA [Mat - Same State 2 - Mod of UCT - D62] (puzzle: Same State 2) ?
Result: 200

Task: Would you kindly share the measured apparent KD of MS2 coat protein for CGUGGGUGGCUGGAGGAUAUUCGAGUGGUAACAUGAGGAUCACCCAUGUGUCGCGCGGUACACGAGGAGAAGGCUGGCGGCCGGC (puzzle: Same State 2) ?
Result: 109

Task: Would you kindly share the measured apparent KD of MS2 coat protein for GGUGCACGGUGACGUGCACGGUAGUGCGUACAUGAGGAUCACCCAUGUCAUGUAGGAGUUACUUGUUCGUCUUGAAC [SENSOR #2] (puzzle: Sensor for hsa-mir-208a) ?
Result: 22.8

Task: Would you kindly share the measured apparent KD of MS2 coat protein for UCUUGGUUUUUGCUCGUUUUUUGUGUUGAACAUGAGGAUCACCCAUGUAUUGUACGGUCCAGUUUGGUGGUAGUCCG [JMF 71] (puzzle: Sensor for hsa-mir-208a) ?
Result: 24.4

Task: Would you kindly share the measured apparent KD of MS2 coat protein for GGAGAACAUGAGGAUCACCCAUGUGGAUGGGCGCUAGGAUAUGCGAGAGGGUGGAGAGAAGCAGAAGGAGUGGAUA [JR_SS1_Sub037] (puzzle: Same State 1) ?
Result: 50.2
